study-system: Gal-4-PPAR (human PPAR LBD fused to GAL4 DNA-binding domain) (Homo sapiens (Human), UniProt P37231)
experiment-notes: GAL4-PPARG LBD / UAS-luciferase transactivation assay in HEK 293T cells
Assay type: cell-based
particulars: HEK-293T, 18 h; read-out: % transactivation at 10 μM (GAL4)
Classify by measured activation at 10 µM: Condition met if it is equal to or exceeds 20%, Condition not met if it is smaller.

Textbook exercise: given the entry Cc1c(C)n(Cc2ccc(-c3ccccc3C(=O)O)cc2)c2ccc(C(=O)N[C@@H](C)c3ccc(Cl)c(C(F)(F)F)c3)cc12 [Example 222] , state whether its activation at 10 µM is greater than or equal to 20%.
Condition not met

Form field: activation at 10 µM at least 20%? Entry: Cc1c(C)n(Cc2ccc(-c3ccccc3C(=O)O)cc2)c2ccc(C(=O)N[C@@H](C)c3cc(C(F)(F)F)ccc3C(F)(F)F)cc12 [Example 172]
Condition not met

I'd appreciate it if you could say whether Cc1c(C)n(Cc2ccc(-c3ccccc3C(=O)O)cc2)c2ccc(C(=O)N[C@@H](C)c3c(F)cncc3F)cc12 [Example 216] has activation at 10 µM at least equal to 20%.
Condition met

Decide: is the reported value of activation at 10 µM for Cc1c(C)n(Cc2ccc(-c3ccccc3C(=O)O)cc2)c2ccc(C(=O)N[C@@H](C)c3ccc(C(F)(F)F)cc3)cc12 [Example 154] equal to or greater than 20%?
Condition not met

Say whether Cc1c(C)n(Cc2ccc(-c3ccccc3C(=O)O)cc2)c2ccc(C(=O)N[C@@H](C)c3ccnc4ccccc34)cc12 [Example 149] shows activation at 10 µM of 20% or more.
Condition not met

# check: activation at 10 µM of Cc1c(C)n(Cc2ccc(-c3ccccc3C(=O)O)cc2)c2ccc(C(=O)N[C@@H](C)[C@H]3CCCN3C(=O)OCc3ccccc3)cc12 [Example 238] is greater than or equal to 20%
Condition met

hey, is activation at 10 µM for this one >= 20%? Cc1c(C)n(Cc2ccc(-c3ccccc3C(=O)O)cc2)c2ccc(C(=O)N[C@H]3CCN(C(=O)OCc4ccccc4)C3)cc12 [Example 204]
Condition not met

Does the compound Cc1c(C)n(Cc2ccc(-c3ccccc3C(=O)O)cc2)c2ccc(C(=O)N[C@H](C)c3ccnc(C4CC4)c3)cc12 [Example 270] have recorded activation at 10 µM that is 20% or more?
Condition met

// inclusive: activation at 10 µM at least 20%? input: Cc1c(C)n(Cc2ccc(-c3ccccc3C(=O)O)cc2)c2ccc(C(=O)N[C@@H](C)c3ccncc3Cl)cc12 [Example 148]
Condition met

Given COc1cccc([C@@H](C)NC(=O)c2ccc3c(c2)c(C)c(C)n3Cc2ccc(-c3ccccc3C(=O)O)cc2)c1 [Example 161] , state whether its activation at 10 µM is at least 20%.
Condition met

Does activation at 10 µM meet or surpass 20% for Cc1c(C)n(Cc2ccc(-c3ccccc3C(=O)O)cc2)c2ccc(C(=O)N[C@H](C)c3cccc(Br)c3)cc12 [Example 296] ?
Condition met

Dear colleague, could you confirm whether Cc1c(C)n(Cc2ccc(-c3ccccc3C(=O)O)cc2)c2ccc(C(=O)N[C@@H](C)c3ccc(Cl)cc3Cl)cc12 [Example 303] has activation at 10 µM at or above 20%?
Condition met

Has Cc1c(C)n(Cc2ccc(-c3ccccc3C(=O)O)cc2)c2ccc(C(=O)N[C@@H](C)c3cccc(F)c3F)cc12 [Example 229] a recorded activation at 10 µM greater than or equal to 20%?
Condition met

# check: activation at 10 µM of Cc1c(C)n(Cc2ccc(-c3ccccc3C(=O)O)cc2)c2ccc(C(=O)N[C@@H](C)c3ccccn3)cc12 [Example 144] is greater than or equal to 20%
Condition met

Is activation at 10 µM at least 20%? Consider Cc1c(C)n(Cc2ccc(-c3ccccc3C(=O)O)cc2)c2ccc(C(=O)N[C@@H](C)[C@@H]3CCCN3C(=O)OCc3ccccc3)cc12 [Example 237]
Condition met

# bool: activation at 10 µM of Cc1c(C)n(Cc2ccc(-c3ccccc3C(=O)O)cc2)c2ccc(C(=O)NCc3ccc(Cl)cc3C(F)(F)F)cc12 [Example 165] >= 20%
Condition not met

activation at 10 µM >= 20% for Cc1c(C)n(Cc2ccc(-c3ccccc3C(=O)O)cc2)c2ccc(C(=O)N[C@@H](C)c3cccc4c3OCO4)cc12 [Example 143] ?
Condition met

State whether the measured activation at 10 µM reaches 20%, counting equality as reaching it, for Cc1c(C)n(Cc2ccc(-c3ccccc3-c3noc(=O)[nH]3)cc2)c2ccc(C(=O)N[C@@H](C)c3cccc(C(C)C)c3)cc12 [Example 244]
Condition not met

Is the recorded value of activation at 10 µM equal to or greater than 20% for this compound? Cc1c(C)n(Cc2ccc(-c3ccccc3C(=O)O)cc2)c2ccc(C(=O)NCc3ccc(C(F)(F)F)cc3F)cc12 [Example 167]
Condition not met

Does Cc1c(C)n(Cc2ccc(-c3ccccc3C(=O)O)cc2)c2ccc(C(=O)N[C@@H](C)c3ccc(C4CC4)cn3)cc12 [Example 261] have a reported activation at 10 µM of at least 20%?
Condition met

Threshold query (activation at 10 µM >= 20%) on Cc1c(C)n(Cc2ccc(-c3ccccc3C(=O)O)cc2)c2ccc(C(=O)N[C@H](C)c3ccc(C(F)(F)F)cc3C(F)(F)F)cc12 [Example 209]
Condition not met

---

study-system: GST-PPARG-LBD (Homo sapiens (Human), UniProt P37231)
Sequence (P37231 238-503): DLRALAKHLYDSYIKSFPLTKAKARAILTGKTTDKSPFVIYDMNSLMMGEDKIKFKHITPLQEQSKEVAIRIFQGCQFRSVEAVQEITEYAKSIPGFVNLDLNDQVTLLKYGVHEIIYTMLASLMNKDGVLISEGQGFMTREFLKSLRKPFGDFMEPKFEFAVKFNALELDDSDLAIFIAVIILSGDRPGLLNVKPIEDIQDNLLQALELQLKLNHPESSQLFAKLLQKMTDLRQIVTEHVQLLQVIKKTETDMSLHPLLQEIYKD
experiment-notes: Lanthascreen PPARG competitive binding assay (Invitrogen, TR-FRET)
particulars: Lanthascreen competitive binding; NA = not active; inc = incomplete curve; read-out: IC50 (nM) Lantha
Experimental: Lanthascreen PPARG Competitive Binding Assay (Invitrogen) The assay was performed according to manufacturer protocol. […] Experiment was performed in triplicate, and incubated for 2 hours in the dark prior to assay read in Perkin Elmer ViewLux ultra HTS microplate reader. FRET signal was measured by excitation at 340 nm and emission at 520 nm for fluorescein and 490 nm for terbium. Fold change over DMSO was calculated using GraphPad Prism Software (La Jolla, Calif.) by calculating 520 nm/490 nm ratio. […]
Threshold check on IC50: strictly below 20 nM is yes (1); on or above 20 nM is no (0).

Decide: IC50 of "Cc1c(C)n(Cc2ccc(-c3ccccc3C(=O)O)cc2)c2ccc(C(=O)N[C@H]3COc4ccccc4C3)cc12" strictly below 20 nM?
no (0)

For this molecule, is IC50 lower than 20 nM? "Cc1c(C)n(Cc2ccc(-c3ccccc3C(=O)O)cc2)c2ccc(C(=O)N[C@@H](C)[C@@H]3CCCN3C(=O)OCc3ccccc3)cc12"
no (0)

Hello, I'm reviewing records and need to know if IC50 of "C[C@H](NC(=O)c1ccc2c(ccn2Cc2ccc(-c3ccccc3C(=O)O)cc2)c1)c1ccc([N+](=O)[O-])cc1" is below 20 nM. Could you check?
no (0)

IC50 under 20 nM? Item: "Cc1c(C)n(Cc2ccc(-c3ccccc3C(=O)O)cc2)c2ccc(C(=O)N[C@@H](C)c3cccc4c3OCO4)cc12"
yes (1)

# check: IC50 < 20 nM for "Cc1c(C)n(Cc2ccc(-c3ccccc3C(=O)O)cc2)c2ccc(C(=O)N[C@H](C)c3cccc(C(F)(F)F)c3Cl)cc12"
yes (1)

Field: below-cutoff. Rule: recorded IC50 strictly less than 20 nM. Subject: "COc1ccc(CNC(=O)c2ccc3c(c2)c(C)c(C)n3Cc2ccc(-c3ccccc3C(=O)O)cc2)cc1"
yes (1)

Dear colleague, could you confirm whether IC50 of CCC(NC(=O)c1ccc2c(ccn2Cc2cccc(-c3ccc(C(=O)O)cc3)c2)c1)c1ccccc1 (centres unmarked) falls below 20 nM? Thanks.
yes (1)

Hello, is IC50 of the following molecule strictly smaller than 20 nM? "COCCNC(=O)c1ccc2c(c1)c(C)c(C)n2Cc1ccc(-c2ccccc2C(=O)O)cc1"
yes (1)

IC50 under 20 nM? Item: "Cc1c(C)n(Cc2ccc(-c3ccccc3C(=O)O)cc2)c2ccc(C(=O)N[C@H](C)c3ccc(C(F)(F)F)cc3C(F)(F)F)cc12"
yes (1)

Criterion: IC50 strictly below 20 nM. Is it met by "CC[C@H](NC(=O)c1ccc2c(ccn2Cc2ccccc2-c2ccc(C(=O)O)cc2)c1)c1ccccc1" ?
no (0)

Is IC50 strictly under 20 nM for the entry "Cc1c(C)n(Cc2ccc(-c3ccccc3C(=O)O)cc2)c2ccc(C(=O)N[C@H](C)c3ccnc(Br)c3)cc12" ?
yes (1)

Decide: IC50 of "Cc1c(C)n(Cc2ccc(-c3ccccc3C(=O)O)cc2)c2ccc(C(=O)N[C@@H](C)C3CCN(C(=O)OCc4ccccc4)CC3)cc12" strictly below 20 nM?
no (0)

Identify whether the molecule "COc1cccc([C@@H](C)NC(=O)c2ccc3c(c2)c(C)c(C)n3Cc2ccc(-c3ccccc3C(=O)O)cc2)c1" records IC50 below 20 nM.
yes (1)

Quick check: does CCC(NC(=O)c1ccc2c(c1)c(C)c(C)n2Cc1ccccc1-c1cccc(C(=O)O)c1)c1ccccc1 (centres unmarked) have IC50 under 20 nM?
no (0)
